Target: T1, Goat anti-Human Kappa
T1 construct: Positive control of the ELISA; also called biotinylated goat anti-human kappa light chain
Assay: ELISA, positive control; also: test concentration or dose not given here
readout.type: optical density
Don't forget the unit after the number, please.

Consider the reported optical density for these binders:
372_F08 (antibody, V domains shown) VH: EVQLLESGGGLVQPGGSLRLSCAASGFTFSDYSMNWVRQAPGKGLEWVSNINYNSGYTGYADSVKGRFTISRDNSKNTLYLQMNSLRAEDTAVYYCARSANWHDTALDYWGQGTLVTVSS VL: DIQMTQSPSSLSASVGDRVTITCRASQSILTYVNWYQQKPGKAPKLVIYAATSRASGVPSRFSGSGSGTDFTLTISSLQPEDFATYYCQQSYDTPLTFGGGTKVEIK; 3.44 OD
369_G11 (antibody, V domains shown) VH: EVQLLESGGGLVQPGGSLRLSCAASGFTFSSYSMNWVRQAPGKGLEWVANINYNSGYKGYADSVKGRFTISRDNSKNTLYLQMNSLRAEDTAVYYCARSANWHDTALDYWGQGTLVTVSS VL: DIQMTQSPSSLSASVGDRVTITCRASQSILTYLNWYQQKPGKAPKLLIYAATSLASGVPSRFSGSGSGTDFTLTISSLQPEDFATYYCQQSYESPLTFGGGTKVEIK; 2.59 OD

Let us move to another entry and its optical density.
q: I am curious: what optical density value has been reported for 374_C06 (antibody, V domains shown) VH: EVQLLESGGGLVQPGGSLRLSCAASGFTFDDYSMNWVRQAPGKGLEWVSSINYNSGYKGYADSVKGRFTISRDNSKNTLYLQMNSLRAEDTAVYYCARSANWHDTALDYWGQGTLVTVSS VL: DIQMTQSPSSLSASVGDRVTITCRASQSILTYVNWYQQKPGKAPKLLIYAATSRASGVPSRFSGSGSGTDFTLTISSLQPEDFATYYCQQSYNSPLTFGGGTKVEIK ?
a: 3.24 OD
